# assayMethodText: Tmax in Sprague-Dawley rat at 20 mg/kg, iv measured upto 12 hrs by LC-MS/MS analysis
# Type: ADME, organism-based
# conditionDescription: in vivo
metricName: Tmax (min)
Answers are plain numbers, in min.

**Q:** # Tmax lookup, item CN(C)CCOc1ccc(-c2cc(=O)c3c(O)cc(OCCCCCC(=O)NO)cc3o2)cc1.Cl
**A:** 4.98

====

# measurementTarget: Histone deacetylase 5 (Homo sapiens, UniProt Q9UQL6)
# Sequence (Q9UQL6 whole entry): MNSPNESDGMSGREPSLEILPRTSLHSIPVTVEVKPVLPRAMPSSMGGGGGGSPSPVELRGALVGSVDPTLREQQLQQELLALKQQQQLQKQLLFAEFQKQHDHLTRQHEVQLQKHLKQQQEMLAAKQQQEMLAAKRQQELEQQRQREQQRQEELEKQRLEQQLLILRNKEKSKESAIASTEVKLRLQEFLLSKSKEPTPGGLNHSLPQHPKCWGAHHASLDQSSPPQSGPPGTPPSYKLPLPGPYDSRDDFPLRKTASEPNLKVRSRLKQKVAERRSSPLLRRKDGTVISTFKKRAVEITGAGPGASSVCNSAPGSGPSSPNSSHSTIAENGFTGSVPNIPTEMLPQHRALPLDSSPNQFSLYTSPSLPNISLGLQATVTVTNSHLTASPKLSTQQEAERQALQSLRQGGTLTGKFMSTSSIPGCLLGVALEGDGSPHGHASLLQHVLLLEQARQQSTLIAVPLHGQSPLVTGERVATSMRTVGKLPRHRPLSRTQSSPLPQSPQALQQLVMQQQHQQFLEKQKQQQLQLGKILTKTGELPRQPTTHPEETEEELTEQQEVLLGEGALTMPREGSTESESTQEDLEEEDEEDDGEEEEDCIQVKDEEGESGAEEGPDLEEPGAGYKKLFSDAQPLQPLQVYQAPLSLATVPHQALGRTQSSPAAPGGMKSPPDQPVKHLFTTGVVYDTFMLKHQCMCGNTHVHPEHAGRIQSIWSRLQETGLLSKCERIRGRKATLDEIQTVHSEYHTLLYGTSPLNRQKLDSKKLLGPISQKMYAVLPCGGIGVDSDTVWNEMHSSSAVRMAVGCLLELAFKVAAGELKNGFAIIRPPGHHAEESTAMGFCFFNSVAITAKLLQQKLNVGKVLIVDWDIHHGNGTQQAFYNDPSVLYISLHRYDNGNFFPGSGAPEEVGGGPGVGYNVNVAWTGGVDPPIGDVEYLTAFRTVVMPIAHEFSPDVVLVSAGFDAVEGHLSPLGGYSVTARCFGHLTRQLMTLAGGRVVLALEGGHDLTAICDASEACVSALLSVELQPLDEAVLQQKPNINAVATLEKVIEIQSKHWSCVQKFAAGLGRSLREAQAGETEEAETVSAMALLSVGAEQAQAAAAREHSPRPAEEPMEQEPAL
# assayMethodText: Inhibition of recombinant human N-terminal GST-tagged HDAC-5 (617 to end residues) expressed in baculovirus infected in Sf9 cells using Boc-Lys (q-Ac)-AMC as substrate incubated for 10 mins followed by substrate addition and measured after 30 mins by fluorescence based assay
metricName: IC50

**Q:** Would you kindly share the measured IC50 for CN(C)CCOc1ccc(-c2cc(=O)c3c(O)cc(OCCCCCC(=O)NO)cc3o2)cc1.Cl ?
**A:** > 10 µM
